Each entry below carries its recorded MFI.
tested_system: T1, HER2 (human epidermal growth factor receptor 2) on cells (human, UniProt P04626 23-1255)
T1 construct: whole, on cells; also called ERBB2; HER2 receptor
procedure_details: flow cytometry (Cy5), BT-474 cells, 1 h, conjugate at 12 mM (so in the source)

Please look at this binder and report its MFI: BHALys[Lys]2[Lys]4[Lys]8[Lys]16[((α-NH-COPEG24NH-COPEG4(PhTzMe)/TCO-PEG3-NHCO-PEG24-(MAL)Me/Cys-Nanobody)1(α-NHCy5)1(α-NHDOTA))10(α-NH2)4)(ε-NH-COPEG1000)16] … (VHH, the additional cysteine (in …) coupled to the methylmaleimide of SRS-21a (linker SRS-12 on G4 dendrimer SRS-1: 1 Cy5, 10 DOTA, 16 PEG1000)) VHH: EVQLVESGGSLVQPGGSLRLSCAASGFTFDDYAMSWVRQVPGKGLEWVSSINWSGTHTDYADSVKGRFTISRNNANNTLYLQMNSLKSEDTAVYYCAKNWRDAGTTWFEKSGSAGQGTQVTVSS
5260

Read off the recorded MFI for [[(ε-NHCO-PEG1100)8(α-NHDOTA)4.75(α-NHCy5)0.5(α-NH2)2.75][Lys]8[Lys]4[Lys]2[Lys]-CONH-CH2-CH2-S-]2MAL-PEG3-NHCO-PEG24-CONH-PEG4-(PhTzMe)/TCO-NHCO-PEG24-(MAL)Me/ … (VHH, the additional cysteine (in …) coupled to the methylmaleimide of linker SRS-12 (intermediate SRS-14), whose TCO is joined to the tetrazine of dendrimer SRS-4-Mal (maleimide core, Cy5, DOTA, PEG1100)) VHH: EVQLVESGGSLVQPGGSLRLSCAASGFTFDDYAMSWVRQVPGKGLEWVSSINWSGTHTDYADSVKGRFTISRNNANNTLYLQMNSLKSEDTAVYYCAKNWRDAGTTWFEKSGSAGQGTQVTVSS
2270

Item [(ε-NHCO-PEG1100)16(α-DOTA)7(α-NHCy5)1(α-NH2)8][Lys]16[Lys]8[Lys]4[Lys]2[Lys]-(PN)NCO-PEG24-CONH-PEG4-(PhTzMe)/TCO-PEG3-NHCO-PEG24-Glu-DBCO/N3-Nanobody SRS-22 (VHH, # (unnatural amino acid, p-azido-phenylalanine, after ...QVTVSS) clicked to the DBCO of SRS-22a (linker Compound 51 on dendrimer HH-2: 1 Cy5, 7 DOTA, 16 PEG1100)) VHH: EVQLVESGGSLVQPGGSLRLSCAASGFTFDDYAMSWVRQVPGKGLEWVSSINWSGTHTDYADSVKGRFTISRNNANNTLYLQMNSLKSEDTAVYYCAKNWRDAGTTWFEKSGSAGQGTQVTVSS : provide MFI
6550

Return MFI (reported value) for this binder: [(ε-NHCO-PEG1100)16(α-NHCy5)1(α-NHDOTA)8(α-NH2)7][Lys]16[Lys]8[Lys]4[Lys]2[Lys]-CONH-CH2-CH2-S-(Me)MAL-PEG24-CONH-Bn-Tz(Me)/TCO-NHCO-PEG24-(MAL)Me/Cys-Nanobody … (VHH, the additional cysteine (in …) coupled to the methylmaleimide of linker SRS-12 (intermediate SRS-14), whose TCO is joined to the tetrazine of dendron RP-5 (1 Cy5, 8 DOTA, 16 PEG1100)) VHH: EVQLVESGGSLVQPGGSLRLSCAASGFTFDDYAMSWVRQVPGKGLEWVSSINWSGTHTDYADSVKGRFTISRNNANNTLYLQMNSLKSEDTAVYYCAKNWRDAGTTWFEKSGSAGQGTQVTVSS
1370

Give the reported MFI for this binder. [[(ε-NHCO-PEG1100)8(α-NHDOTA)4.75(α-NHCy5)0.5(α-NH2)2.75][Lys]8[Lys]4[Lys]2[Lys]-CONH-CH2-CH2-S-]2MAL-PEG3-NHCO-PEG24-CONH-PEG4-(PhTzMe)/TCO-PEG3-NHCO-PEG24-Glu … (VHH, # (unnatural amino acid, p-azido-phenylalanine, after ...QVTVSS) clicked to the DBCO of SRS-20a (linker Compound 51 on dendrimer SRS-4-Mal: maleimide core, Cy5, DOTA, PEG1100)) VHH: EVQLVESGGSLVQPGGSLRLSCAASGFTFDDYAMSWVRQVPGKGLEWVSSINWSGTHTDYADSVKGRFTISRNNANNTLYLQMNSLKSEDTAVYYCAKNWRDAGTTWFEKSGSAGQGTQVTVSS
3140

Quick one: give measured MFI for [(ε-NHCO-PEG1100)16(α-DOTA)7(α-NHCy5)1(α-NH2)8][Lys]16[Lys]8[Lys]4[Lys]2[Lys]-(PN)NCO-PEG24-CONH-PEG4-(PhTzMe)/TCO-NHCO-PEG24-(MAL)Me/Cys-Nanobody SRS-17 (VHH, the additional cysteine (in …) coupled to the methylmaleimide of linker SRS-12 (intermediate SRS-14), whose TCO is joined to the tetrazine of dendrimer HH-2 (1 Cy5, 7 DOTA, 16 PEG1100)) VHH: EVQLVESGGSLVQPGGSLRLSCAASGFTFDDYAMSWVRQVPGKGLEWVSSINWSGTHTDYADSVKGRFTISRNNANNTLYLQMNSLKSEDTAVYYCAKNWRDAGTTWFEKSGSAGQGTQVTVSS
2270
